SUBJECT_OF_TEST: T1, rat parathyroid hormone receptor (PTHR) (rat, UniProt P25961 27-591)
T1 construct: Endogenous in ROS17/2.8 cells (membranes or intact cells); also called rat PTHR; rat PIR
T1 sequence: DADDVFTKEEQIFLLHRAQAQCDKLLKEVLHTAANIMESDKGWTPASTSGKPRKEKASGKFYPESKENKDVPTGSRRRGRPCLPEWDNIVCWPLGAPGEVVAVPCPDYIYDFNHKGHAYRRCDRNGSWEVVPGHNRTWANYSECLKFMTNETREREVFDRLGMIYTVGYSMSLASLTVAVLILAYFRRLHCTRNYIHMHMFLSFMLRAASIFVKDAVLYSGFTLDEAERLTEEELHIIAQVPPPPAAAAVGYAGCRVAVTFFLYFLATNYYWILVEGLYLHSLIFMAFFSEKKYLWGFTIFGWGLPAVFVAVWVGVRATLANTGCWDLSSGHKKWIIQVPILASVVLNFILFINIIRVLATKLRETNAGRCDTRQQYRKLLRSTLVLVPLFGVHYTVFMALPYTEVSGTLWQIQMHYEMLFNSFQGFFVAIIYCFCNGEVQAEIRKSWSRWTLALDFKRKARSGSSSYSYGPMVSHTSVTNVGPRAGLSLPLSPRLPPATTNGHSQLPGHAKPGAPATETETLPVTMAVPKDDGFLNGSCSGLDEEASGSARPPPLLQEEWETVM
EXPERIMENT_SUMMARY: competition radioligand binding, rat PIR R0
Ends that are not written are not given here.
QUANTITY: pIC50
Note: pIC50 values are expressed as the negative base-10 logarithm of concentration in M.

Example results:
BINDER	ENDPOINT_VALUE
AVSEHQLLHDKGKSIQDERRRAFLLKLIAE-NH2 (also called EALK-PTHrP(1-30)) [E18,A22,L25,K26-PTHrP(1-30)NH]	7.12
AVSEHQLLHDKGKSIQDERRRAFLHHKIAEI-NH2 (Name as printed (K27)) [E18,A22,K27-PTHrP(1-31)NH]	7.26

The record that follows has no pIC50 shown yet.
Query block: Request the reported pIC50 associated with AVSEHQLLHDKGKSIQDARRRAFLLKLI-NH2 (not fully specified, also called [Ala^18,22,Leu^25,Lys^26]-PTHrP(1-28); AALK-PTHrP(1-28)) [A18,22,L25,K26-PTHrP(1-28)NH]
Result block: 7.46

Reference for the values: patent US20110172153A1
